Some molecules, each annotated with its measured log10(Ki).
TARGET OR TEST SYSTEM: rhPSMA (Homo sapiens (Human))
Sequence (Q04609 44-750): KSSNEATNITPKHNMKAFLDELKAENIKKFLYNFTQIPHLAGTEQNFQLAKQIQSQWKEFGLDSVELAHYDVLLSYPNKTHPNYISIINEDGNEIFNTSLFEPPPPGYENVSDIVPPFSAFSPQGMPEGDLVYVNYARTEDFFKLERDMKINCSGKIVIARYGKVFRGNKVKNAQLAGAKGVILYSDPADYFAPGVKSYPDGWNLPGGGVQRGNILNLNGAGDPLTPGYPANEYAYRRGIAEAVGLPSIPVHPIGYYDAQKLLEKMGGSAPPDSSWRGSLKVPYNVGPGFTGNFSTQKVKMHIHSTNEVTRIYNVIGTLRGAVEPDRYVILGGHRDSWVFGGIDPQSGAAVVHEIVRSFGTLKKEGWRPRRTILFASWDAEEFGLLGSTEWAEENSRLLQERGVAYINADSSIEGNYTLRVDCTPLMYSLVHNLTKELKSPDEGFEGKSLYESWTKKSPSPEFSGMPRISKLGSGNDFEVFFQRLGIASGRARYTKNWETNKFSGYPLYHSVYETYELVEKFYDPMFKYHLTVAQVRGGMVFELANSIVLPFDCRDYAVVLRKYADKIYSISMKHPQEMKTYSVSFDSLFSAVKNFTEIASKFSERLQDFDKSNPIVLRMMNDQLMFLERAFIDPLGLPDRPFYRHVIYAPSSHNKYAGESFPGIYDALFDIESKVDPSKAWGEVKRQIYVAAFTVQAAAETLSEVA
EXPERIMENT NOTES: PSMA inhibition assay (NAAG hydrolysis, Amplex Red)
Type: biochemical
COND: Table 1; from IC50 and Km via Cheng-Prusoff equation
Note: values are log10 of Ki expressed in nM.

1. O=C(O)CC[C@H](NC(=O)N[C@@H](CCCCn1cc(CNc2ccc([N+](=O)[O-])cc2[N+](=O)[O-])nn1)C(=O)O)C(=O)O [1, ARM-P0] | -1.11
2. COCc1cn(CCCC[C@H](NC(=O)N[C@@H](CCC(=O)O)C(=O)O)C(=O)O)nn1 [8, MeO-P0] | 0.13
3. O=C(O)CC[C@H](NC(=O)N[C@@H](CCCCn1cc(COCCOCCOCCOCCOCCOCCOCCOCCOCCOCCOCCOCCNc2ccc([N+](=O)[O-])cc2[N+](=O)[O-])nn1)C(=O)O)C(=O)O [7, ARM-P12] | 0.22

Query: Look at this molecule and give its reported log10(Ki). O=C(O)CC[C@H](NC(=O)N[C@@H](CCCCn1cc(COCCOCCOCCOCCOCCOCCNc2ccc([N+](=O)[O-])cc2[N+](=O)[O-])nn1)C(=O)O)C(=O)O [5, ARM-P6]
Response: -1.00

Query: Look at this molecule and give its reported log10(Ki). COCCOCCOCCOCCOCCOCCOCCOCCOCc1cn(CCCC[C@H](NC(=O)N[C@@H](CCC(=O)O)C(=O)O)C(=O)O)nn1 [11, MeO-P8]
Response: 0.76

Query: Look at this molecule and give its reported log10(Ki). COCCOCCOCc1cn(CCCC[C@H](NC(=O)N[C@@H](CCC(=O)O)C(=O)O)C(=O)O)nn1 [9, MeO-P2]
Response: 0.26

Query: Look at this molecule and give its reported log10(Ki). COCCOCCOCCOCCOCCOCCOCCOCCOCCOCCOCCOCCOCc1cn(CCCC[C@H](NC(=O)N[C@@H](CCC(=O)O)C(=O)O)C(=O)O)nn1 [12, MeO-P12]
Response: 0.86

Query: Look at this molecule and give its reported log10(Ki). O=C(O)CC[C@H](NC(=O)N[C@@H](CCCCn1cc(COCCNc2ccc([N+](=O)[O-])cc2[N+](=O)[O-])nn1)C(=O)O)C(=O)O [2, ARM-P1]
Response: -1.33

====

TARGET OR TEST SYSTEM: rhPSMA (Homo sapiens (Human))
EXPERIMENT NOTES: PSMA inhibition assay (NAAG hydrolysis, Amplex Red)
Format: biochemical
COND: Table 2; Cheng-Prusoff equation, Km 925 nM
pKi: −log10 of the molar value.
Classification field: enter yes for pKi values not below 9, no for values below it.

Examples from the recorded data:
1) O=C(O)CC[C@H](NC(=O)N[C@@H](CCCCn1cc(COCCOCCNc2ccccc2[N+](=O)[O-])nn1)C(=O)O)C(=O)O | yes
2) O=C(O)CC[C@H](NC(=O)N[C@@H](CCCCn1cc(COCCOCCNc2ccc([N+](=O)[O-])cc2)nn1)C(=O)O)C(=O)O | yes

In the following, a different compound is considered.
Query: Exam item: decide whether the reported pKi for O=C(O)CC[C@H](NC(=O)N[C@@H](CCCCn1cc(COCCOCCNC2CCCCC2)nn1)C(=O)O)C(=O)O is at least 9.
Response: no

====

TARGET OR TEST SYSTEM: human recombinant PSMA (rhPSMA) (Homo sapiens (Human), UniProt Q04609)
Sequence (Q04609 44-750 limits assumed): as the sequence (Q04609 44-750) above
EXPERIMENT NOTES: NAALADase inhibition experiments (Amplex Red glutamate release)
COND: human recombinant PSMA (R&D Research); average of three runs ± standard deviation
Method: A 10 mM stock solution of N-acetyl-aspartyl-glutamate (NAAG) in 40 mM NaOH was diluted to 40 μM in Tris buffer (0.1M Tris-HCl, pH=7.5), and was added to 384 well plate (25 μl per well). […] For IC50 measurements, solutions of recruiting molecule 3 in water (2 μL per well, dilution series) were added to wells. For all other wells, 2 μL of water was added. […] Km and IC50 values were calculated using graphpad prism software, and Ki was calculated from these values using the Cheng-Prusoff Equation. […]
PARAMETER MEASURED: pKi
Keep in mind that pKi stands for -log10 of concentration in molar terms.

Query: Hello, I am looking for reported pKi with human recombinant PSMA (rhPSMA) (Homo sapiens (Human), UniProt Q04609) for CC(C)(C)OC(=O)CC[C@H](NC(=O)N[C@@H](CCCCn1cc(COCCOCCOCCOCCNc2ccc([N+](=O)[O-])cc2[N+](=O)[O-])nn1)C(=O)OC(C)(C)C)C(=O)OC(C)(C)C . Could you help?
Response: 9.05

====

TARGET OR TEST SYSTEM: rhPSMA (Homo sapiens (Human))
EXPERIMENT NOTES: PSMA inhibition assay (NAAG hydrolysis, Amplex Red)
Format: biochemical
COND: Table 2; mean of triplicate experiments ± SD
# label = yes if IC50 < 20 nM else no

Query: Quick check: does O=C(O)CC[C@H](NC(=O)N[C@@H](CCCCn1cc(COCCOCCNC2CCCCC2)nn1)C(=O)O)C(=O)O [Compound 17] have IC50 under 20 nM?
Response: no

Query: Quick check: does O=C(O)CC[C@H](NC(=O)N[C@@H](CCCCn1cc(COCCOCCNc2ccc([N+](=O)[O-])cc2)nn1)C(=O)O)C(=O)O [Compound 14] have IC50 under 20 nM?
Response: yes

Query: Quick check: does O=C(O)CC[C@H](NC(=O)N[C@@H](CCCCn1cc(COCCOCCNc2ccccc2)nn1)C(=O)O)C(=O)O [Compound 15] have IC50 under 20 nM?
Response: yes

Query: Quick check: does O=C(O)CC[C@H](NC(=O)N[C@@H](CCCCn1cc(COCCOCCNc2ccccc2[N+](=O)[O-])nn1)C(=O)O)C(=O)O [Compound 13] have IC50 under 20 nM?
Response: yes

Query: Quick check: does COc1ccc(NCCOCCOCc2cn(CCCC[C@H](NC(=O)N[C@@H](CCC(=O)O)C(=O)O)C(=O)O)nn2)cc1 [Compound 16] have IC50 under 20 nM?
Response: no
